Tested on: EGFP-Axin2 fusion protein
test conditions: read-out: Axin2 Stabilization EC50; HEK293 EGFP-Axin2 cells, 24 hours; Mean ± SEM
pEC50: −log10 of the molar value.
Quick rule: pEC50 of at least 7 means True, below that means False.

- CN1CCCc2c1nc(N1CCN(Cc3ccccc3Cl)CC1)[nH]c2=O: True
- CN1CCCc2c1nc(N1CCN(Cc3ncccc3Cl)CC1)[nH]c2=O: True
- CN1CCCc2c1nc(N1CCN(Cc3ncccc3C#N)CC1)[nH]c2=O: True

Does the reported pEC50 for "CN1CCCc2c1nc(N1CCN(Cc3ncc(Cl)cn3)CC1)[nH]c2=O" fall at or above the 7 mark? False

These entries and their values trace back to patent US9624218B2.
